- ASSAY_DETAILS: A CellTox Green Cytotoxicity Assay to monitor cytotoxicity in HepG2 cells - 24 hour (AID 1224878); note: nearly all actives have a fitted effect of over 45% in size
- SETTINGS: CellTox Green fluorescence; series mostly up to 76.8 µM
Records with an inconclusive call do not appear. The source made the active and inactive calls. Calls come from the whole dose curve; as a rule, active = well fitted activation curve with a large enough effect in the repeat runs; inconclusive = weak or mixed curves; inactive = flat fitted curve, though single readings scatter.
Outcomes you can answer with include only these: TRUE (active), FALSE (inactive)

As a guide, the following entries are already answered.
Cc1ccc(N(CCO)CCO)cc1 : FALSE
C[C@@H]1[C@H](O)[C@@H](C)/C=C/C=C\C=C\C=C\C=C\C=C\C=C\[C@H](O[C@@H]2O[C@H](C)[C@@H](O)[C@H](N)[C@@H]2O)C[C@@H]2O[C@](O)(C[C@@H](O)C[C@@H](O)[C@H](O)CC[C@@H](O)C[C@@H](O)CC(=O)O[C@H]1C)C[C@H](O)[C@H]2C(=O)O (stereo in doubt) : FALSE
CCCCOC(=O)CCCCC(=O)OCCCC : FALSE
CC1=C2[C@@H]([C@H](C)CC[C@H]2/C=C(\C)C(=O)O)[C@H](O)C1 : FALSE
CC/C=C\C/C=C\C/C=C\CCCCCCCC(=O)OCC : FALSE
Nc1ccc(F)cc1 : FALSE

// query I'd appreciate the recorded outcome for CSCC[C@H](NC(=O)[C@H](Cc1c[nH]c2ccccc12)NC(=O)CCNC(=O)OC(C)(C)C)C(=O)N[C@@H](CC(=O)O)C(=O)N[C@@H](Cc1ccccc1)C(N)=O from this test.
// result FALSE

// query I'd appreciate the recorded outcome for CO[C@@H]1[C@@H](OC)[C@H](C)[C@@](O)(CC(=O)O)O[C@H]1[C@H](C)[C@H]1O[C@@]2(CC[C@@](C)([C@H]3CC[C@@](C)([C@@H]4O[C@@H]([C@H]5O[C@](C)(O)[C@H](C)C[C@@H]5C)C[C@@H]4OC4C[C@H](OC)[C@@H](OC)[C@H](C)O4)O3)O2)C[C@H](O)[C@H]1C (stereo partly drawn) from this test.
// result TRUE

// query I'd appreciate the recorded outcome for O=C(/C=C/c1ccc([N+](=O)[O-])cc1)c1ccccc1 from this test.
// result TRUE

// query I'd appreciate the recorded outcome for COc1ccc(N)c([N+](=O)[O-])c1 from this test.
// result FALSE

// query I'd appreciate the recorded outcome for [Cl][Nd]([Cl])[Cl] from this test.
// result FALSE

// query I'd appreciate the recorded outcome for O=C(O)c1cc(Cl)cc(Cl)c1O from this test.
// result FALSE

// query I'd appreciate the recorded outcome for C1=CCC2CC=CC2C1 (stereo not drawn) from this test.
// result FALSE

// query I'd appreciate the recorded outcome for CC(O)Cn1cnc2c1c(=O)n(C)c(=O)n2C (stereo not drawn) from this test.
// result FALSE

// query I'd appreciate the recorded outcome for FC(F)(F)C(F)(F)C(F)(F)C(F)(F)CCI from this test.
// result FALSE

// query I'd appreciate the recorded outcome for CC[C@H]1OC(=O)[C@H](C)[C@@H](O[C@H]2C[C@@](C)(OC)[C@@H](O)[C@H](C)O2)[C@H](C)[C@@H](O[C@@H]2O[C@H](C)C[C@H](N(C)C)[C@H]2O)[C@](C)(O)C[C@@H](C)/C(=N\OCOCCOC)[C@H](C)[C@@H](O)[C@]1(C)O from this test.
// result FALSE

// query I'd appreciate the recorded outcome for CCOCCC(=O)OCC from this test.
// result FALSE

// query I'd appreciate the recorded outcome for CCCCCc1ccco1 from this test.
// result FALSE

* * *

- TEST_SYSTEM: Nuclear receptor subfamily 1 group I member 2 (Homo sapiens) (UniProt O75469)
- Sequence (O75469 whole entry, looked up): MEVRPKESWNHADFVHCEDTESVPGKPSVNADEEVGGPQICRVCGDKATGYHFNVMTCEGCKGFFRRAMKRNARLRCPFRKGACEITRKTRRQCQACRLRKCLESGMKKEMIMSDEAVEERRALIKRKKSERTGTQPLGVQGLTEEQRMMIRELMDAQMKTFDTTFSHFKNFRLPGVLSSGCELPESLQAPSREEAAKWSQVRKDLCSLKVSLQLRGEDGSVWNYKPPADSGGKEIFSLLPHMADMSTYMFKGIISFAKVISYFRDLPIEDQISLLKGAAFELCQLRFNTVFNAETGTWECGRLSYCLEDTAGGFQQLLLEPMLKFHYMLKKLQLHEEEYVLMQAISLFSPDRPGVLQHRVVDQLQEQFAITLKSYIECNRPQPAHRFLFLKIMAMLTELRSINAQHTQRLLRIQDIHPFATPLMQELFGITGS
- ASSAY_DETAILS: Human pregnane X receptor (PXR) small molecule agonists, qHTS assay (AID 1346982); note: nearly all actives have a fitted effect of over 35% in size; note: potency is the fitted concentration of half-maximal effect
- SETTINGS: PXR-Luc HepG2, CYP3A4 luciferase reporter, 24 h; series mostly up to 92.4 µM
Results filed as inconclusive are left out. Active and inactive are the calls of the source. Calls come from the whole dose curve; as a rule, active = well fitted activation curve with a large enough effect in the repeat runs; inconclusive = weak or mixed curves; inactive = no such curve, though single readings can be large or run the other way.
QUANTITY: Potency

Example results:
c1ccc(CNc2ncnc3c2ncn3C2CCCCO2)cc1 (stereo not given) : 21.7 µM (active)
CC(CCc1ccc(O)cc1)NCCc1ccc(O)c(O)c1 (stereo not given) : inactive
CCCCC[C@H](O)/C=C/[C@H]1[C@H](O)CC(=O)[C@@H]1C/C=C\CCCC(=O)O : inactive
CCCCCCCCCCCCCC(=O)OCC(O)CO (stereo not given) : inactive
O=C(c1ccccc1)c1ccc(O)cc1 : 61.8 µM (active)

// query May I ask what Potency has been recorded for O=C(CCS)OCC(COC(=O)CCS)(COC(=O)CCS)COC(=O)CCS ?
// result inactive

// query May I ask what Potency has been recorded for CC(C)(O)c1coc(S(=O)(=O)NC(=O)Nc2c3c(cc4c2CCC4)CCC3)c1 ?
// result inactive

// query May I ask what Potency has been recorded for CNS(=O)(=O)c1cc(C(=O)N2CCC(CCN3C4CCC3CC(n3c(C)nc5ccccc53)C4)(c3cccc(F)c3)CC2)c(Cl)cc1F (stereo not given) ?
// result inactive

// query May I ask what Potency has been recorded for Cc1cc(CCCOc2c(C)cc(-c3noc(C(F)(F)F)n3)cc2C)on1 ?
// result 21.1 µM (active)

// query May I ask what Potency has been recorded for CCC(=O)OCc1ccc(OC)cc1 ?
// result inactive
